For each entry below, report its inhibition value.
Target: Casein kinase I isoform gamma-2 (Homo sapiens) (UniProt P78368)
Sequence (P78368 whole entry, looked up, canonical isoform): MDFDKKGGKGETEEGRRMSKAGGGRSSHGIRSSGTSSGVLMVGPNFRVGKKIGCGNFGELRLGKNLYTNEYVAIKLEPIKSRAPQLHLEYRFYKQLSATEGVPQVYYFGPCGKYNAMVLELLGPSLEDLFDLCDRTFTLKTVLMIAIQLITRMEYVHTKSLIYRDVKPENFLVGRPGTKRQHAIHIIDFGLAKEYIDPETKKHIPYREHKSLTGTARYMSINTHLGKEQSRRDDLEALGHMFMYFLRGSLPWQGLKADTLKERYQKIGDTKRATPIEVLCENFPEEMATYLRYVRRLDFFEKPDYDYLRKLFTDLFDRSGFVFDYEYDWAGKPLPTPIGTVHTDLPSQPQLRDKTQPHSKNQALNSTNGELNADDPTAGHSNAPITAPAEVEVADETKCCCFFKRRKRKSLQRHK
Conditions: at 1 µM
Description: GSK_PKIS: CK1-g2 mean inhibition at 1 uM [Nanosyn]
# number then unit; no other words

# molecule, reported-result
rows = [
    ("O=C1Nc2ccccc2/C1=C1\\CCc2cc(O)ccc21", "8.01%"),
    ("CC1=C(C(=O)Nc2ccc3[nH]ncc3c2)C(c2ccc(F)cc2)N=C(c2ccc(C(F)(F)F)nc2)N1 (stereo unspecified)", "2.44%"),
    ("Cc1nnc(-c2cccc(-c3ccc(C(=O)NCC4CC4)cc3)c2)o1", "4.15%"),
    ("CCn1c(-c2nonc2N)nc2cncc(C(=O)NCCNC)c21", "5.17%"),
    ("CCCNc1cccc(-n2ncc3c(N/N=C/c4ccncc4)ncnc32)c1", "1.01%"),
    ("CNC(=O)c1cncc(/C=C/c2ccccc2C)c1", "2.72%"),
    ("Cc1cc(O)cc(C)c1/C=C/c1cncc(C(N)=O)c1", "2.37%"),
    ("CC1=C(C(=O)Nc2ccc3[nH]nc(C)c3c2)C(c2ccc(C(F)(F)F)cc2)CC(=O)N1 (stereo unspecified)", "3.14%"),
    ("CCOc1ccc2c(-c3ccnc(Nc4cc(OC)cc(C(F)(F)F)c4)n3)cnn2n1", "2.72%"),
    ("c1cnn2ncc(-c3ccnc(NCCCN4CCOCC4)n3)c2c1", "5.14%"),
]

Go through the list and state inhibition for each entry.
1. COC(=O)Nc1nc2cc(Oc3ccc(NC(=O)Nc4ccccc4)cc3)ccc2[nH]1
2. OCCCNc1nccc(-c2c(-c3ccc(F)cc3)nn3cc(C(F)(F)F)ccc23)n1
3. COC(=O)Nc1nc2ccc(Oc3ccc(NC(=O)Nc4cc(C(F)(F)F)ccc4F)cc3)cc2s1
4. CS(=O)(=O)CCNCc1ccc(-c2ccc3ncnc(Nc4ccc(OCc5cccc(C(F)(F)F)c5)cc4)c3c2)o1
5. Cn1c(-c2nonc2N)nc2cnccc21
6. CS(=O)(=O)CCNCc1ccc(-c2ccc3ncnc(Nc4ccc(OCc5ccccc5)cc4)c3c2)o1
7. COc1cc(N2CCN(C(C)C)CC2)ccc1Nc1nc(Nc2cccc(F)c2C(=O)O)c2cc[nH]c2n1
8. O=C(O[C@H]1CN[C@H](C#Cc2cc3ncnc(Nc4ccc5c(ccn5Cc5cc(F)ccc5F)c4)c3s2)C1)N1CCOCC1

["1.9%", "4.56%", "-0.08%", "3.89%", "3.42%", "2.81%", "4.83%", "5.86%"]

List the reported inhibition of each molecule below.
1. COc1ccc(Nc2ncc(-c3ccccc3)o2)cc1OC
2. NC(=O)c1ccc2c(-c3ccnc(NCCCO)n3)c(-c3ccc(F)cc3)nn2c1
3. CS(=O)(=O)Nc1ccc(-c2ccc3c(NC(=O)C4CC4)n[nH]c3c2)cc1

4.12%
19.9%
4.11%

Give me inhibition for each of these molecules, listed below.
1. CN1CCC(n2cnc(-c3ccc(F)cc3)c2-c2ccnc(NCCO)n2)CC1
2. COc1ccc2ncn(-c3cc(O[C@H](C)c4ccccc4C(F)(F)F)c(C(N)=O)s3)c2c1
3. CS(=O)(=O)Nc1ccc(-c2cc(-c3ccccc3)cc(C(N)=O)c2N)cc1
4. CC(C)c1ccc(-c2cc(-c3c[nH]nc3-c3ccccn3)ccn2)cc1
5. COc1ccc(-c2nn3ncccc3c2-c2ccnc(Nc3ccc(F)c(F)c3)n2)cc1
6. COc1cccc(Nc2nccc(-c3cnn4ncccc34)n2)c1
7. NS(=O)(=O)c1cccc(N/C=C2\C(=O)Nc3ccccc32)c1
8. O=C(O[C@H]1CN[C@H](C#Cc2cc3ncnc(Nc4ccc5c(cnn5Cc5ccccc5)c4)c3s2)C1)N1CCOCC1

1: 5.84%; 2: -0.54%; 3: 0.9%; 4: 1.17%; 5: 3.56%; 6: 47.2%; 7: 12.7%; 8: 0.77%

// each molecule listed below needs its inhibition
1. COc1cc2c(cc1Nc1nc(Nc3cccc(F)c3C(N)=O)c3cc[nH]c3n1)N(C(=O)CN1CCN(C(C)C)CC1)CC2
2. COc1c(C(N)=O)cc(-c2ccc(Cl)cc2)cc1-c1ccc(S(N)(=O)=O)cc1

5.31%
5.53%

----------
Target: Vascular endothelial growth factor receptor 3 (Homo sapiens);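 also: mean FLT4 inhibition, averaged across replicates, from the GSK PKIS kinase inhibitor screen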
Conditions: at 1 µM
recorded-endpoint: inhibition (%)
Give bare numbers, in %.

Can you give me inhibition for all of these, one by one?
1. CNC(=O)c1sc(-n2cnc3cc(OC)c(OC)cc32)cc1OCc1ccccc1C(F)(F)F
2. NS(=O)(=O)c1ccc(N/N=C2\C(=O)Nc3ccc(C(=O)NCc4ccncc4)cc32)cc1
3. N#Cc1ccc2c(-c3ccnc(NC4CC4)n3)c(-c3ccc(F)cc3)nn2c1
4. CN1CCC(n2cnc(-c3ccc(F)cc3)c2-c2ccnc(NCCO)n2)CC1
5. Cn1c(-c2nonc2N)nc2cnccc21

6.76
48.7
4.18
0.88
-0.12

Parameters: items (list). Returns: inhibition for each item.
1. COc1cccc(Nc2nccc(-c3cnn4ncccc34)n2)c1
2. N#Cc1cccc(Nc2ncc(-c3ccccc3)o2)c1
3. COc1ccccc1-c1cc(/C=C2\C(=O)Nc3ncc(Br)cc32)cc(Br)c1O
4. FC(F)(F)CNc1nccc(-c2cnn3ncccc23)n1
5. COc1cc(N2CCN(C(C)C)CC2)ccc1Nc1nc(Nc2cccc3ncccc23)c2cc[nH]c2n1
6. CN(C)CCNC(=O)Nc1ccc(N(C)c2ccnc(Nc3ccc(CS(C)(=O)=O)cc3)n2)cc1
7. CC1=C(C(=O)Nc2ccc3[nH]ncc3c2)C(c2ccc(F)cc2)N=C(c2ccc(C(F)(F)F)nc2)N1 (stereo not given)

[30.2, 3.1, 4.28, 2.12, 0.22, 4.9, 0.82]

Each of the following entries comes with a recorded value; kindly state inhibition for each.
1. COc1cc(Nc2ncc(-c3ccccc3)o2)cc(OC)c1
2. CC1(C)CC(n2cnc(-c3ccc(F)cc3)c2-c2ccnc(N)n2)CC(C)(C)N1

9.4
2.77

----------
Biological target: NUAK family SNF1-like kinase 1 (Homo sapiens) (UniProt O60285)
Sequence (whole entry): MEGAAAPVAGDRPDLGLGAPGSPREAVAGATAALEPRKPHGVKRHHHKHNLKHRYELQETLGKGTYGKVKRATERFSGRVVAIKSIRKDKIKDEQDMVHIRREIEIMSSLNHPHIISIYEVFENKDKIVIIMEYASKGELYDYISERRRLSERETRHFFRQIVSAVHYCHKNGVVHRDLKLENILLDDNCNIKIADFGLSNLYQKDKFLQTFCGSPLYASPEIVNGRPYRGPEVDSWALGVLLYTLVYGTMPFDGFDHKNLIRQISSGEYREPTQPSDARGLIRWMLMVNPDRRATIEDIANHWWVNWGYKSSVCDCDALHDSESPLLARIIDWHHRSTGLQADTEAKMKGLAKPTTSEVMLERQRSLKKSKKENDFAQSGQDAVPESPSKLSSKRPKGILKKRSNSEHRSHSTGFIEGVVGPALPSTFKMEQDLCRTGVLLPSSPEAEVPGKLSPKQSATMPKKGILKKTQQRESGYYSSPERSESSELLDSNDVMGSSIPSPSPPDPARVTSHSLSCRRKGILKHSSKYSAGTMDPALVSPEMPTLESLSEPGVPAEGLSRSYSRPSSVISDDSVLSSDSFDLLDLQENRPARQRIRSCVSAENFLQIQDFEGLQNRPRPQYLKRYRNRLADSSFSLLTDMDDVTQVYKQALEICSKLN
Conditions: at 1 µM
Description: GSK_PKIS: ARK5 mean inhibition at 1 uM [Nanosyn]
Give measured inhibition for each item. Keep answers brief.
Answers are plain numbers, in %.

# count of solved cases: 4
# compound-structure-string, inhibition (%)
rows = [
    ("c1cnn2ncc(-c3ccnc(NCCCN4CCOCC4)n3)c2c1", 0.6),
    ("COC(=O)Nc1nc2ccc(Oc3ccc(NC(=O)Nc4cc(C(F)(F)F)ccc4F)cc3)cc2s1", -3.55),
    ("CS(=O)(=O)Nc1ccc(-c2cc(-c3ccccc3)cc(C(N)=O)c2N)cc1", 1.62),
    ("Cc1cc(O)cc(C)c1/C=C/c1cncc(C(=O)OC(C)(C)C)c1", 4.1),
]

Now look at this one.
Item: `COc1cc(N2CCN(C(C)C)CC2)ccc1Nc1nc(Nc2cccc3ncccc23)c2cc[nH]c2n1` Test system: NUAK family SNF1-like kinase 1 (Homo sapiens) (UniProt O60285) Read-out: inhibition Value: ?
47.5

----------
Biological target: Tyrosine-protein kinase ITK/TSK (Homo sapiens);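 also: values are mean percent inhibition of ITK from the GSK PKIS screen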
Settings: at 1 µM
Kind request: treat 2% as inclusive, so inhibition at 2% or higher is Yes, anything lower is No.

# compound-structure-string, test-target, label-class
records = [
    ("CN1CCC(n2cnc(-c3ccc(F)cc3)c2-c2ccnc(NCCO)n2)CC1", "Tyrosine-protein kinase ITK/TSK (Homo sapiens)", "Yes"),
    ("CCS(=O)(=O)c1ccc(OC)c(Nc2ncc(-c3cccc(F)c3)o2)c1", "Tyrosine-protein kinase ITK/TSK (Homo sapiens)", "Yes"),
    ("NC(=O)c1ccc2c(-c3ccnc(NCCCO)n3)c(-c3ccc(F)cc3)nn2c1", "Tyrosine-protein kinase ITK/TSK (Homo sapiens)", "No"),
]

Now look at this one.
Is it the case that `COc1cccc(Nc2nccc(-c3cnn4ncccc34)n2)c1` has inhibition reaching or exceeding 2%?
Yes
